target: GLP-1 receptor (UniProt P43220 24-463, limits assumed); experiment: cell-based or functional assay
Where no end group is shown, it is not given here. [ ]: non-standard residue; d: D form. Aib = CC(C)(N)C(=O)O
Result type: relative activity (to native hormone) (%)
One number for each entry, in %.

Guide cases for relative activity (to native hormone), answers given:
Y[Aib]EGTFISDYSIAMDKIHQQDFVNWLLAQKGKKNWLKHNITQ-NH2 (not fully specified) [mt-217 (SEQ ID NO: 19)] = 11.3
Y[Aib]EGTFISDYSIAMDKIHQQDFVCWLLAQKGKKNWLKHNITQ-NH2 (not fully specified) [mt-220 (SEQ ID NO: 22)] = 13.9
Y[Aib]PGTFISDYSIAMDKIHQQDFVNWLLAQKGKKNWLKHNITQ-NH2 (not fully specified) [mt-219 (SEQ ID NO: 21)] = 16.6

Would you kindly look at the next entry?
In: Supply measured relative activity (to native hormone) of YXEGTFISDYSIAMDKIHQQDFVNWLLAQKGKKNWLKHNITQ (not fully specified; AIB at position 2; C-terminal amide; Glu16-Lys20 lactam in some Table 3 peptides, absent in others (which ones is not stated)) [mt-218 (SEQ ID NO: 20)] in your reply.
Out: 7.4
